# assaySystem: Avi-KRAS G12V (1-169) GppNHp/RAF1 RBD-3xFLAG (52-151) (Homo sapiens, UniProt P01116, G12V)
# Construct: Avi-KRAS G12V (1-169)
# Sequence (P01116 1-169 isoform P01116-2 G12V): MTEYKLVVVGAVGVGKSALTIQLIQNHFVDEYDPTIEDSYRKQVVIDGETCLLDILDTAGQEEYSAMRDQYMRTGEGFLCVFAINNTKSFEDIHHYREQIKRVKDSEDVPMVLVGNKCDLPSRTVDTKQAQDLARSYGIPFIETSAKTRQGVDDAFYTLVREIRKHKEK
# procedureSummary: Raf1-KRAS G12V-GppNHP disruption HTRF assay (Biological Example 1)
# Format: binding
# conditionDescription: KRAS G12V-GppNHp/RAF1 RBD HTRF
For each entry below, report its IC50 value.

Report IC50 for every entry below.
1. CCN(c1nc(OC[C@@]23CCCN2C[C@H](F)C3)nc2c(F)c(-c3ccc(F)c4sc(N)c(C#N)c34)c(C(F)(F)F)cc12)[C@@H]1C[C@@H](C)N(C(=O)N(C)C)C1 (atropisomer, axis not shown) [Compound 525]
2. CN(c1nc(OC[C@@]23CCCN2C[C@H](F)C3)nc2c(F)c(-c3ccc(F)c4sc(N)c(C#N)c34)c(C(F)(F)F)cc12)C1CCCS(=O)(=O)C1 (stereo partly drawn) [Compound 341]
3. CCN(c1nc(OC[C@@]23CCCN2C[C@H](F)C3)nc2c(F)c(-c3ccc(F)c4sc(N)c(C#N)c34)c(C(F)(F)F)cc12)[C@@H]1CCN(C(=O)OC)[C@@H]1C [Compound 489]

1000 to 10000 nM
1000 to 10000 nM
100 to 1000 nM
